Cited source for all entries: PubChem BioAssay (EPA / NIEHS)

assay: ATG_MRE_CIS: Attagene CIS-FACTORIAL HepG2 Assay for human Metal Responsive Element (MRE) (AID 2282954); conditions: HepG2 MRE cis-reporter transcription, Attagene multiplex; actives raise or lower the signal
Activity calls are given as the source filed them. How the source made its calls: active means hit-call score of the fitted dose curve at least 0.9, where 1 is the maximum; inactive means score below 0.9.
MEASURED_ENDPOINT: outcome

Worked cases, answers included:
>  <COMPOUND>
CNC[C@H](O)[C@@H](O)[C@H](O)[C@H](O)CO

>  <MEASURED_ENDPOINT>
outcome

>  <REPORTED>
inactive

$$$$
>  <COMPOUND>
COc1ccccc1OCC(O)CO (stereo unspecified)

>  <MEASURED_ENDPOINT>
outcome

>  <REPORTED>
inactive

$$$$
>  <COMPOUND>
CC1(C)S[C@@H]2[C@H](NC(=O)[C@H](N)c3ccccc3)C(=O)N2[C@H]1C(=O)O

>  <MEASURED_ENDPOINT>
outcome

>  <REPORTED>
inactive

$$$$
>  <COMPOUND>
CC(C)CC(=O)CC(C)CC(C)C (stereo unspecified)

>  <MEASURED_ENDPOINT>
outcome

>  <REPORTED>
inactive

$$$$
>  <COMPOUND>
Cc1cc(-n2nc3ccc(Cl)cc3n2)c(O)c(C(C)(C)C)c1

>  <MEASURED_ENDPOINT>
outcome

>  <REPORTED>
inactive

$$$$

Query: Assign outcome to the following record: `CCCOCCC`
Reply: inactive

Query: Return value of outcome for input `[O-][n+]1ccc(Cl)cc1` , no commentary.
Reply: inactive

Query: State its outcome: CCC(C)(CCC(C)C)C(=O)O (stereo unspecified)
Reply: inactive

Query: Check the records and state outcome for `CC(C)CC(=O)O`
Reply: inactive

Query: Note down outcome recorded for `Brc1ccc(Oc2ccc(Br)cc2)cc1`
Reply: inactive

Query: Please list outcome recorded for the compound CCC(C)NC(N)=O (stereo unspecified)
Reply: inactive

Query: Provide outcome value for the following compound: `COC(=O)/C=C\C(=O)OC`
Reply: inactive

Query: Give recorded outcome. `CC(=O)Nc1c(I)c(NC(C)=O)c(I)c(C(=O)O)c1I`
Reply: inactive

Query: Give me measured outcome, please, for this compound: `O=C1NC(=O)[C@@H]2CC=CC[C@H]12`
Reply: inactive

Query: Please supply the value of reported outcome for the item `O=C(c1ccccc1)c1ccccc1O`
Reply: inactive

Query: Output measured outcome for this item: CCCCCCCCCC/C=C/C1CC(=O)OC1=O (stereo unspecified)
Reply: inactive
